Measured MIC80 accompanies every entry in the list below.
- Tested on: Kluyveromyces marxianus
- PROCEDURE_DETAILS: Antifungal activity against Candida kefyr by microbroth dilution method
- Format: functional
MEASURED_QUANTITY: MIC80 (µg/mL)

INSERT INTO results (compound, numeric_result) VALUES
  ('O=[N+]([O-])c1ccccc1Cn1cc(CC(O)(Cn2cncn2)c2ccc(F)cc2F)nn1 (stereo not given)', 0.0625),
  ('Cc1ccccc1Cn1cc(CC(O)(Cn2cncn2)c2ccc(F)cc2F)nn1 (stereo not given)', 0.0039),
  ('CCC(C)n1ncn(-c2ccc(N3CCN(c4ccc(OCC5COC(Cn6cncn6)(c6ccc(Cl)cc6Cl)O5)cc4)CC3)cc2)c1=O (stereo not given)', 0.125),
  ('OC(Cn1cncn1)(Cn1cncn1)c1ccc(F)cc1F', 4),
  ('OC(Cc1cn(Cc2ccccc2Br)nn1)(Cn1cncn1)c1ccc(F)cc1F (stereo not given)', 0.0625);
